Target: HTRA1, Q92743
Sequence (Q92743 360-477): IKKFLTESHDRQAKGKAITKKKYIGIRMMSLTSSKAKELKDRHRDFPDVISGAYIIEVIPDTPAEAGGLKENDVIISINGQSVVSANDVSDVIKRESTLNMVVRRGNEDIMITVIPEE
Assay: holdup assay
Parameters: key: below the threshold = too weak to quantify, mostly under pKd 3.1 to 4
Conditions: plain residues with an end cap or a label only (N-terminal biotin on a linker: ado-ado)
Can you tell me pKd for the items I'm about to list?
Lab note: record the figure alone, no unit after it.

Record request: pKd value, item QGLAERISVL [PRKD2, Q9BZL6]
4.77

How about this binder: GQEEQVTTRL [TRPC5, Q9UL62]
3.92

Queued: LRSPRTPSEV [OR10G3, Q8NGC4]
3.58

Entry to check: YNNCLEILRV [DCAF7, P61962]
5.22
